Taken from ChEMBL document CHEMBL5625175.

- Tested on: HCT-116
- protocol-summary: Antiproliferative activity against human HCT-116 cells assessed as reduction in cell growth incubated for 24 hrs by MTT assay
- Format: functional, cell-based
- assay-conditions: HCT-116, 24 h
readout-type: pIC50
Kindly note that pIC50 refers to -log10 of the concentration in mol/L and answer with the value alone.

Which value of pIC50 has been reported for CCn1c(SCC(=O)Nc2ccc(/C(C)=N/O)cc2)nc2ccccc2c1=O in the records?
5.32

###

- System: HepG2
- protocol-summary: Cytotoxicity against human HepG2 cells assessed as cell growth inhibition
- Assay type: functional, cell-based
Assignment: determine reported IC50 for the given compounds.
Your answer should be a plain number; it is taken to be in µM.

Which value of IC50 has been reported for CNC(=O)c1cc(Oc2ccc(NC(=O)Nc3ccc(Cl)c(C(F)(F)F)c3)cc2)ccn1 in the records?
19.3

Do the same for Cc1ccc2nc(-c3cccnc3)nc(NNC(=S)NC3CCCCC3)c2c1 please
10.4
